Would you mind telling me the reported cell viability of each entry?
- System: SEM cells
- assay explanation: cell viability relative to DMSO control; higher = less cytotoxic
- condition details: RPMI 5 mM glucose + 10% dialyzed FBS; 48 h; 0.0632 µM
Form entry: value (%) — number only.

Prompt line: Fill in: cell viability of NCCCCNCCCN is ___
Response line: 106

Prompt line: Fill in: cell viability of C[S+](=O)([O-])c1ccc(C(=O)Nc2ccc(Cl)c(-c3ccccn3)c2)c(Cl)c1 is ___
Response line: 131

Prompt line: Fill in: cell viability of CN(C)CCOc1ccc(-c2nc(-c3ccncc3)c(-c3ccc4c(c3)CC/C4=N\O)[nH]2)cc1 is ___
Response line: 113

Prompt line: Fill in: cell viability of C[C@]12CC[C@@H]3c4ccc(O)cc4CC[C@H]3[C@@H]1C[C@@H](O)[C@@H]2O is ___
Response line: 129

Prompt line: Fill in: cell viability of COC1=C2C[C@@H](C)C[C@H](OC)[C@H](O)[C@@H](C)/C=C(\C)[C@H](OC(N)=O)[C@@H](OC)/C=C/C=C(\C)C(=O)NC(=CC1=O)C2=O is ___
Response line: 97.2

Prompt line: Fill in: cell viability of C=CC(=O)Nc1cccc(Nc2nc(NC3CCC(N(C)C)CC3)nc3c2ncn3C(C)C)c1 (stereo not drawn) is ___
Response line: 115

Prompt line: Fill in: cell viability of O=C(Nc1ncc(-c2cc(C(F)F)nn2-c2c(Cl)cccc2Cl)s1)C1CC1 is ___
Response line: 127

Prompt line: Fill in: cell viability of Cc1csc(NC(=O)c2sc3nc4c(c(C(F)(F)F)c3c2N)CCC4)n1 is ___
Response line: 92.9

* * *

- Test system: NOMO1
- assay explanation: cell viability relative to DMSO control; higher = less cytotoxic
- condition details: RPMI 5 mM glucose + 10% dialyzed FBS; 48 h; 0.00234 µM
measured metric: cell viability (%)
Form entry: value (%) — number only.

Prompt line: Fill in: cell viability of COc1cc2c(Nc3ccc(Br)cc3F)ncnc2cc1OCC1CCN(C)CC1 is ___
Response line: 79.1

Prompt line: Fill in: cell viability of O=C1Nc2ccc(I)cc2/C1=C/c1cc(Br)c(O)c(Br)c1 is ___
Response line: 93.3

Prompt line: Fill in: cell viability of COC(=O)C1C2CC3c4[nH]c5cc(OC)ccc5c4CCN3CC2CC(OC(=O)c2cc(OC)c(OC)c(OC)c2)C1OC (centres undefined) is ___
Response line: 101

Prompt line: Fill in: cell viability of COC/1=C/C=C2\C(=C/C1=O)[C@H](CCC3=CC(=C(OC)C(=C23)OC)OC)NC(C)=O is ___
Response line: 21.5

Prompt line: Fill in: cell viability of ClC1=CC\2=C(OC3=C(C=CC=C3)\N=C2N4CCNCC4)C=C1 is ___
Response line: 84

Prompt line: Fill in: cell viability of COc1cc([C@H]2Oc3cc([C@H]4Oc5cc(O)cc(O)c5C(=O)[C@@H]4O)ccc3O[C@@H]2CO)ccc1O is ___
Response line: 121

Prompt line: Fill in: cell viability of COc1cccc([C@@H](C)NCCCc2ccccc2Cl)c1 is ___
Response line: 100

Prompt line: Fill in: cell viability of NCCCCNCCCN is ___
Response line: 104

Prompt line: Fill in: cell viability of CN(C)c1nc(Cc2ccc(NC(=O)c3ccc4ccccc4c3)cc2)nc(Cl)c1CC(=O)O is ___
Response line: 110

* * *

- Tested on: P12-Ichikawa
- assay explanation: cell viability relative to DMSO control; higher = less cytotoxic
- condition details: RPMI 5 mM glucose + 10% dialyzed FBS; 48 h; 0.0211 µM
Would you mind telling me the reported cell viability of each entry?
Form entry: value (%) — number only.

Prompt line: Fill in: cell viability of COC1=C2C[C@@H](C)C[C@H](OC)[C@H](O)[C@@H](C)/C=C(\C)[C@H](OC(N)=O)[C@@H](OC)/C=C/C=C(\C)C(=O)NC(=CC1=O)C2=O is ___
Response line: 111

Prompt line: Fill in: cell viability of CC/1=C(/C(CC(=O)N1)C2=CC=C(C=C2)C(F)(F)F)C(=O)NC3=C(F)C=C4[NH]N=CC4=C3 (centres undefined) is ___
Response line: 101

Prompt line: Fill in: cell viability of Cc1cc(Nc2cc(CN3CCOCC3)c3nc(C)c(Cc4ccc(Cl)cc4F)n3n2)[nH]n1 is ___
Response line: 114

Prompt line: Fill in: cell viability of CCC(=O)N[C@H]1CC[C@H](C(=O)N(C)c2ccc(-c3nc4ccccc4o3)cc2)C1 is ___
Response line: 98.3

Prompt line: Fill in: cell viability of Cn1c(=O)n(-c2ccc(C(C)(C)C#N)cc2)c2c3cc(-c4cnc5ccccc5c4)ccc3ncc21 is ___
Response line: 105

Prompt line: Fill in: cell viability of NC(=O)C1CCCc2c1[nH]c1ccc(Cl)cc21 (centres undefined) is ___
Response line: 107

Prompt line: Fill in: cell viability of ClC1=CC\2=C(OC3=C(C=CC=C3)\N=C2N4CCNCC4)C=C1 is ___
Response line: 104

Prompt line: Fill in: cell viability of C=CCc1cccc(/C=N/NC(=O)CN2CCN(Cc3ccccc3)CC2)c1O is ___
Response line: 114

Prompt line: Fill in: cell viability of CC[C@H](C)C(=O)O[C@H]1C[C@H](O)\C=C2\C=C/[C@H](C)[C@H](CC[C@@H](O)C[C@@H](O)CC(O)=O)[C@@H]12 is ___
Response line: 109

Prompt line: Fill in: cell viability of CN(C)CCOc1ccc(-c2nc(-c3ccncc3)c(-c3ccc4c(c3)CC/C4=N\O)[nH]2)cc1 is ___
Response line: 101

Prompt line: Fill in: cell viability of C[C@]12CC[C@@H]3c4ccc(O)cc4CC[C@H]3[C@@H]1C[C@@H](O)[C@@H]2O is ___
Response line: 123

Prompt line: Fill in: cell viability of CN(C)c1nc(Cc2ccc(NC(=O)c3ccc4ccccc4c3)cc2)nc(Cl)c1CC(=O)O is ___
Response line: 111

Prompt line: Fill in: cell viability of CN1C(=O)C[C@H](C(=O)N[C@@H](Cc2cnc[nH]2)C(=O)N2CCC[C@H]2C(N)=O)NC1=O is ___
Response line: 115

Prompt line: Fill in: cell viability of Cc1cnc(C(=O)O)c[n+]1[O-] is ___
Response line: 111

Prompt line: Fill in: cell viability of COc1ccc2[nH]c([S+]([O-])Cc3ncc(C)c(OC)c3C)nc2c1 (centres undefined) is ___
Response line: 77

Prompt line: Fill in: cell viability of CN(C)CCCN1c2ccccc2CCc2ccc(Cl)cc21 is ___
Response line: 145

Prompt line: Fill in: cell viability of CC(C)C[C@H](NC(=O)CNC(=O)c1cc(Cl)ccc1Cl)B(O)O is ___
Response line: 21.6

Prompt line: Fill in: cell viability of Cc1cc(Nc2nc(N[C@@H](C)c3ccc(F)cc3)c(C#N)cc2F)n[nH]1 is ___
Response line: 97.4

Prompt line: Fill in: cell viability of ClC1=CC\2=C(NC(=O)\C(=C2N[C@@H]3CN4CCC3CC4)C5=NC6=C([NH]5)C=CC=C6)C=C1 is ___
Response line: 112

* * *

- Tested on: P12-Ichikawa
- assay explanation: cell viability relative to DMSO control; higher = less cytotoxic
- condition details: HPLM + 10% dialyzed FBS; 48 h; 0.0211 µM
measured metric: cell viability (%)
Form entry: value (%) — number only.

Prompt line: Fill in: cell viability of COC(=O)C1C2CC3c4[nH]c5cc(OC)ccc5c4CCN3CC2CC(OC(=O)c2cc(OC)c(OC)c(OC)c2)C1OC (stereo not drawn) is ___
Response line: 107

Prompt line: Fill in: cell viability of Cc1[nH]c(/C=C2\C(=O)Nc3ccccc32)c(C)c1CCC(=O)O is ___
Response line: 105

Prompt line: Fill in: cell viability of C[S+](=O)([O-])c1ccc(C(=O)Nc2ccc(Cl)c(-c3ccccn3)c2)c(Cl)c1 is ___
Response line: 132

Prompt line: Fill in: cell viability of C[C@]12CC[C@@H]3c4ccc(O)cc4CC[C@H]3[C@@H]1C[C@@H](O)[C@@H]2O is ___
Response line: 120

Prompt line: Fill in: cell viability of CCCCCCOC(=O)/N=C(/N)c1ccc(NCc2nc3cc(C(=O)N(CCC(=O)OCC)c4ccccn4)ccc3n2C)cc1 is ___
Response line: 131

Prompt line: Fill in: cell viability of CC1(C)CNc2cc(NC(=O)c3cccnc3NCc3ccncc3)ccc21 is ___
Response line: 121

Prompt line: Fill in: cell viability of OC(=O)C(CC/1=C/C(=O)NC2=CC=CC=C12)NC(=O)C3=CC=C(Cl)C=C3 (stereo not drawn) is ___
Response line: 123

Prompt line: Fill in: cell viability of C[C@]12CC[C@H]3[C@@H](C\C=C/4C[C@@H](O)CC[C@]34C)[C@@H]1CCC2=O is ___
Response line: 108

Prompt line: Fill in: cell viability of N[S+](=O)([O-])c1cccc2c1C(=O)c1cccc(O)c1C2=O is ___
Response line: 111

Prompt line: Fill in: cell viability of Cn1cc(/C=C2\C(=O)Nc3cccnc32)c2ccccc21 is ___
Response line: 121

Prompt line: Fill in: cell viability of CC[C@@]1(O)C(=O)OC\C2=C1\C=C\3N(CC4=C3N=C5C=CC=CC5=C4)C2=O is ___
Response line: 86.1

Prompt line: Fill in: cell viability of CN1CCN2c3ncccc3Cc3ccccc3C2C1 (stereo not drawn) is ___
Response line: 120

Prompt line: Fill in: cell viability of CN1CCC[C@@H]1CCO[C@](C)(c1ccccc1)c1ccc(Cl)cc1 is ___
Response line: 113

Prompt line: Fill in: cell viability of CC1=C(CC(=O)O)c2cc(F)ccc2/C1=C\c1ccc([S+](C)[O-])cc1 (stereo not drawn) is ___
Response line: 123

Prompt line: Fill in: cell viability of C[S+](=O)([O-])c1cccc(CNc2nc(Nc3ccc4c(c3)CCC(=O)N4)ncc2C(F)(F)F)c1 is ___
Response line: 111

Prompt line: Fill in: cell viability of CN1CCCC(CC1)N2\N=C(CC3=CC=C(Cl)C=C3)/C4=C(C=CC=C4)C2=O (stereo not drawn) is ___
Response line: 111

Prompt line: Fill in: cell viability of CCCCCCCCCC(=O)N[C@@H](Cc1c[nH]c2ccccc12)C(=O)N[C@H](CC(N)=O)C(=O)N[C@@H](CC(=O)O)C(=O)N[C@@H]1C(=O)NCC(=O)N[C@@H](CCCN)C(=O)N[C@@H](CC(=O)O)C(=O)N[C@H](C)C(=O)N[C@@H](CC(=O)O)C(=O)NCC(=O)N[C@H](CO)C(=O)N[C@@H]([C@@H](C)CC(=O)O)C(=O)N[C@@H](CC(=O)c2ccccc2N)C(=O)O[C@@H]1C is ___
Response line: 123

Prompt line: Fill in: cell viability of NC(=O)C1CCCc2c1[nH]c1ccc(Cl)cc21 (stereo not drawn) is ___
Response line: 114
